From: ChEMBL document CHEMBL4219175

Test: Aqueous solubility of the compound at pH 7
Assay type: physicochemical
Details: aqueous medium
ASSAY READOUT: solubility (µg/mL)
Please reply with the bare figure in µg/mL and do not write the unit itself.

Below are worked cases with known answers.
I have this molecule here, O=C(Nc1ncc(Cc2ccncc2)s1)C1CCCCC1 , and I need its recorded solubility. 350

Now consider O=C(Nc1ncc(Cc2ccccn2)s1)C1CCCCC1 . 340

Now consider O=C(CCC1CCCCC1)Nc1ncc(Cc2ccccn2)s1 . 40

Others:
I have this molecule here, O=C(Nc1ncc(Cc2ccnc3ccccc23)s1)C1CCCCC1 , and I need its recorded solubility. 70

Now consider O=C(Nc1ncc(Cc2cccnc2)s1)C1CCCCC1 . 340

* * *

Tested on: Histoplasma capsulatum
Experiment: Fungistatic activity against Histoplasma capsulatum OSU76 after 2 to 24 hrs by colony forming assay
Type: functional, organism-based
ASSAY READOUT: IC50 (nM)
Please reply with the bare figure in nM and do not write the unit itself.

Record O=C(Nc1ncc(Cc2cccc3ccccc23)s1)C1CCCCC1 : what is its IC50 with Histoplasma capsulatum? 870

* * *

Assay: Therapeutic index, ratio of IC50 for mouse P388D1 cells to IC50 for wild type Cryptococcus neoformans serotype A H99
Type: toxicity
Details: read-out: Ratio IC50
ASSAY READOUT: selectivity ratio

I have this molecule here, O=C(Nc1ncc(Cc2ccnc3ccccc23)s1)C1CCCCC1 , and I need its recorded selectivity ratio. 5

Now consider O=C(Nc1ncc(Cc2cccc3nsnc23)s1)C1CCCCC1 . > 26

Now consider O=C(Nc1ncc(Cc2ccccc2)s1)C1CCCCC1 . > 29

Now consider O=C(Nc1ncc(Cc2cccc3c2CCC3)s1)C1CCCCC1 . > 98

Now consider O=C(Nc1ncc(Cc2cccc3sccc23)s1)C1CCCCC1 . > 108

Others:
I have this molecule here, O=C(Nc1ncc(Cc2cccc3ccccc23)s1)C1CCCCC1 , and I need its recorded selectivity ratio. > 60

Now consider O=C(Nc1ncc(Cc2cccc3ccsc23)s1)C1CCCCC1 . > 118

Now consider O=C(c1cnc(NC(=O)C2CCCCC2)s1)c1cccc2ccccc12 . > 45

Now consider O=C(Nc1ncc(Cc2ccccn2)s1)C1CCCCC1 . > 6

Now consider O=C(Nc1ncc(Cc2cccc3ccoc23)s1)C1CCCCC1 . > 65

* * *

The compounds listed here are annotated with their MIC90.
Test system: Cryptococcus neoformans
Assay: Antifungal activity against wild type fluconazole-sensitive Cryptococcus neoformans serotype A H99 at pH 7 measured over 4 days
Type: functional, organism-based
Conditions: var grubii H99 , 96 h
Please reply with the bare figure in µM and do not write the unit itself.

Below are worked cases with known answers.
Record O=C(Nc1ncc(Cc2cccc3nsnc23)s1)C1CCCCC1 : what is its MIC90 with Cryptococcus neoformans? 5

Now consider O=C(Nc1ncc(Cc2cccc3ccccc23)s1)C1CCCCC1 . 1.25

Now consider O=C(Nc1ncc(Cc2cccc3c2CCC3)s1)C1CCCCC1 . 1.25

Now consider O=C(c1cnc(NC(=O)C2CCCCC2)s1)c1cccc2ccccc12 . 2.5

Now consider O=C(Nc1ncc(Cc2ccccn2)s1)C1CCCCC1 . 20

The record that follows has no MIC90 shown yet.
Record O=C(Nc1ncc(Cc2ccccc2)s1)C1CCCCC1 : what is its MIC90 with Cryptococcus neoformans? 2.5

* * *

Assay: Aqueous solubility of the compound at pH 5
Type: physicochemical
Conditions: aqueous medium
ASSAY READOUT: solubility (µg/mL)
Please reply with the bare figure in µg/mL and do not write the unit itself.

Below are worked cases with known answers.
I have this compound here, O=C(Nc1ncc(Cc2ccncc2)s1)C1CCCCC1 , and I need its recorded solubility. 1190

Now consider O=C(Nc1ncc(Cc2ccccn2)s1)C1CCCCC1 . 480

Now consider O=C(Nc1ncc(Cc2cccnc2)s1)C1CCCCC1 . 590

Now consider O=C(CCC1CCCCC1)Nc1ncc(Cc2ccnc3ccccc23)s1 . 5

Now consider O=C(Nc1ncc(Cc2cccc3ccccc23)s1)C1CCCCC1 . 4

Others:
I have this compound here, O=C(CCC1CCCCC1)Nc1ncc(Cc2ccccn2)s1 , and I need its recorded solubility. 60

Now consider O=C(CCC1CCCCC1)Nc1ncc(Cc2ccncc2)s1 . 140

Now consider O=C(Nc1ncc(Cc2ccnc3ccccc23)s1)C1CCCCC1 . 130

* * *

The molecules listed here are annotated with their MIC90.
Tested on: Cryptococcus neoformans
Assay: Antifungal activity against wild type fluconazole-sensitive Cryptococcus neoformans serotype A H99 at pH 7 measured over 4 days
Assay type: functional, organism-based
Conditions: var grubii H99 , 96 h

Below are worked cases with known answers.
I have this molecule here, CCc1cnc(NC(=O)CCC2CCCCC2)s1 , and I need its recorded MIC90. > 40 µM

Now consider O=C(Nc1ncc(Cc2cccc3ccoc23)s1)C1CCCCC1 . 2.5 µM

The record that follows has no MIC90 shown yet.
I have this molecule here, O=C(Nc1ncc(Cc2cccc3c2CCCC3)s1)C1CCCCC1 , and I need its recorded MIC90. > 40 µM

* * *

The molecules listed here are annotated with their MIC90.
System: Cryptococcus neoformans
Assay: Antifungal activity against wild type fluconazole-sensitive Cryptococcus neoformans serotype A H99 at pH 7 measured over 4 days
Type: functional, organism-based
Settings: var grubii H99 , 96 h

Record O=C(Nc1ncc(CC2CCCC2)s1)C1CCCCC1 : what is its MIC90 with Cryptococcus neoformans? > 40 µM

Now consider O=C(Nc1ncc(Cc2cccc3ccsc23)s1)C1CCCCC1 . 0.63 µM

Now consider O=C(CCC1CCCCC1)Nc1ncc(Cc2csc3ccccc23)s1 . > 40 µM

Now consider OC(Cn1cncn1)(Cn1cncn1)c1ccc(F)cc1F . 4.08 µM

Now consider O=C(CCC1CCCCC1)Nc1ncc(CC2CCCC2)s1 . > 40 µM

Now consider O=C(CCC1CCCCC1)Nc1ncc(C(=O)c2cccc3ccccc23)s1 . > 40 µM

* * *

Test: Therapeutic index, ratio of IC50 for mouse P388D1 cells to IC50 for Histoplasma capsulatum G217B ATCC 26032
Assay type: toxicity
Conditions: read-out: Ratio IC50
The compounds listed here are annotated with their selectivity ratio.

Below are worked cases with known answers.
I have this compound here, O=C(CCC1CCCCC1)Nc1ncc(C(=O)c2cccc3ccccc23)s1 , and I need its recorded selectivity ratio. > 63

Now consider O=C(Nc1ncc(Cc2cccc3nsnc23)s1)C1CCCCC1 . > 26

Now consider O=C(Nc1ncc(Cc2cccc3ccoc23)s1)C1CCCCC1 . > 95

Now consider O=C(CCC1CCCCC1)Nc1ncc(Cc2cccc3ccccc23)s1 . 46

Now consider O=C(CCC1CCCCC1)Nc1ncc(Cc2ccncc2)s1 . > 5

Others:
I have this compound here, O=C(Nc1ncc(Cc2cccc3ccsc23)s1)C1CCCCC1 , and I need its recorded selectivity ratio. > 200

Now consider O=C(CCC1CCCCC1)Nc1ncc(Cc2cccc3ccsc23)s1 . 21

Now consider O=C(Nc1ncc(Cc2ccccn2)s1)C1CCCCC1 . > 2

Now consider O=C(Nc1ncc(Cc2ccccc2)s1)C1CCCCC1 . > 38

Now consider O=C(CCC1CCCCC1)Nc1ncc(Cc2cccc3c2CCC3)s1 . > 105

Now consider O=C(CCC1CCCCC1)Nc1ncc(Cc2ccccc2)s1 . > 50

Now consider O=C(CCC1CCCCC1)Nc1ncc(Cc2cccc3ccoc23)s1 . 44

* * *

The compounds listed here are annotated with their selectivity ratio.
Experiment: Therapeutic index, ratio of IC50 for mouse P388D1 cells to IC50 for Histoplasma capsulatum G217B ATCC 26032
Format: toxicity
Conditions: read-out: Ratio IC50

I have this compound here, O=C(c1cnc(NC(=O)C2CCCCC2)s1)c1cccc2ccccc12 , and I need its recorded selectivity ratio. > 211

Now consider O=C(Nc1ncc(Cc2cccc3ccccc23)s1)C1CCCCC1 . > 83

Now consider O=C(Nc1ncc(CC2CCCC2)s1)C1CCCCC1 . > 53

Others:
I have this compound here, O=C(Nc1ncc(Cc2cccc3sccc23)s1)C1CCCCC1 , and I need its recorded selectivity ratio. > 200

Now consider O=C(CCC1CCCCC1)Nc1ncc(Cc2ccccn2)s1 . > 5

Now consider O=C(Nc1ncc(Cc2cccc3c2CCC3)s1)C1CCCCC1 . > 160

Now consider O=C(Nc1ncc(Cc2ccnc3ccccc23)s1)C1CCCCC1 . 5

Now consider O=C(CCC1CCCCC1)Nc1ncc(Cc2cccc3c2CCCC3)s1 . 27

Now consider O=C(CCC1CCCCC1)Nc1ncc(Cc2csc3ccccc23)s1 . 63

Now consider O=C(CCC1CCCCC1)Nc1ncc(Cc2cccc3sccc23)s1 . > 200

* * *

The molecules listed here are annotated with their Ratio.
Test: Ratio of aqueous solubility at pH 5 to aqueous solubility at pH 7
Assay type: physicochemical
Conditions: buffer
Lab note: write the figure by itself, no unit.

Below are worked cases with known answers.
I have this molecule here, O=C(CCC1CCCCC1)Nc1ncc(Cc2ccnc3ccccc23)s1 , and I need its recorded Ratio. 1.7

Now consider O=C(Nc1ncc(Cc2ccnc3ccccc23)s1)C1CCCCC1 . 1.9

Now consider O=C(Nc1ncc(Cc2ccncc2)s1)C1CCCCC1 . 3.4

Now consider O=C(Nc1ncc(Cc2cccnc2)s1)C1CCCCC1 . 1.7

Now consider O=C(CCC1CCCCC1)Nc1ncc(Cc2ccccn2)s1 . 1.5

Others:
I have this molecule here, O=C(CCC1CCCCC1)Nc1ncc(Cc2ccncc2)s1 , and I need its recorded Ratio. 3.5

Now consider O=C(Nc1ncc(Cc2ccccn2)s1)C1CCCCC1 . 1.4

Now consider O=C(Nc1ncc(Cc2cccc3ccccc23)s1)C1CCCCC1 . 1
